- TESTED_ON: Env of HIV-1 strain 3016.v5.c45 (HIV-1)
- PROTOCOL_NOTES: cell-based or functional assay
PROPERTY_LABEL: neutralization IC50 (µg/mL)
Answers are plain numbers, in µg/mL.

| BINDER | PROPERTY_LABEL | UNIT_ABBREVIATION | RESULT |
| --- | --- | --- | --- |
| γ22κ5 (antibody, V domains shown) VH: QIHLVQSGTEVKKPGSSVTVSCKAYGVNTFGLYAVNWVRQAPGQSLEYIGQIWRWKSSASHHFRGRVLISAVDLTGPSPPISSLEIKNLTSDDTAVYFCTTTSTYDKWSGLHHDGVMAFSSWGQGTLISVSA VL: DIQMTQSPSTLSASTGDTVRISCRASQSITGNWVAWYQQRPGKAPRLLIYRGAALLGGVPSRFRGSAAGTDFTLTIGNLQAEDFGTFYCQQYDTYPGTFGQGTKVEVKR | neutralization IC50 | µg/mL | 0.103 |
| γ8κ3 (antibody, V domains shown) VH: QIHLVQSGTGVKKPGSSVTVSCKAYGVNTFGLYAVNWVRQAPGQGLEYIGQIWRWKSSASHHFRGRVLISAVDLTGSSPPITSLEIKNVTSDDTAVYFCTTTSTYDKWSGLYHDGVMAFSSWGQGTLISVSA VL: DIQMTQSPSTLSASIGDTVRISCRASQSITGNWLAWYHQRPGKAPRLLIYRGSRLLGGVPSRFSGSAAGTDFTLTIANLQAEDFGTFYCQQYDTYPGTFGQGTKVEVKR | neutralization IC50 | µg/mL | 2.38 |

Alright, here's another binder for you.
Tell me neutralization IC50 reported for 8ANC3484 (antibody, V domains shown) VH: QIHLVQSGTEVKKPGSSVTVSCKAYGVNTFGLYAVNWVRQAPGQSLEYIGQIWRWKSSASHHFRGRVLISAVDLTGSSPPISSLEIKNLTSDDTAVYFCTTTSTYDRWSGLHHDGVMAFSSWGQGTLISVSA VL: DIQMTQSPSTLSASIGDTVRISCRASQSITGNWVAWYQQRPGKAPRLLIYRGAALLGGVPSRFRGSAAGTDFTLTIGNLQAEDFGTFYCQQYDTYPGTFGQGTKVEVKR
0.131
